measurement_protocol: in vitro
experimental_context: rat, gh3-tre-luc cells, AC50 (uM) modified / 1000, Tox21_110001=Tox21_201288; viability, 1 nM T3 present, 24 h
measure: CC50 at 24 h

Sample Brc1ccc(Br)cc1 [1,4-Dibromobenzene] ; CC50 at 24 h observed: > 90 µM

====

For each entry below, report its AC50 value.
tested_system: human RXRα (Homo sapiens, UniProt P19793)
Construct: host or cells: GeneBLAzer UAS-bla HEK 293T
Sequence (P19793 227-458 limits assumed): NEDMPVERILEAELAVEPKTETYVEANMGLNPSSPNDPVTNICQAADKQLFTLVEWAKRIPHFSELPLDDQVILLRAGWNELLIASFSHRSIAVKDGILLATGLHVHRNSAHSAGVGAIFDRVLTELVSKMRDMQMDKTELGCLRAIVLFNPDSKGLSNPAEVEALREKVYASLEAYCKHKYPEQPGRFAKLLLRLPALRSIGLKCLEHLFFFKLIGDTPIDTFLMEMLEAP
measurement_protocol: RXRa-bla-Ag mammalian one-hybrid beta-lactamase assay (TOX21_TR_RXR_BLA_Agonist_Followup_ratio, aeid 2253)
Assay type: cell-based
experimental_context: HEK 293T one-hybrid, agonist mode; inactive set to 1,000; read-out: RXRa-bla-Ag AC50
Answers are plain numbers, in µM.

Use these answered entries as a reference point.
INSERT INTO results (molecule, measure, observed) VALUES
  ('C[C@]12CC[C@H]3C(=CCc4cc(O)ccc43)[C@@H]1CCC2=O [Equilin, reference compound]', 'AC50', 0.986),
  ('COc1cc(C)c(/C=C/C(C)=C/C=C/C(C)=C/C(=O)O)c(C)c1C [Acitretin, reference compound]', 'AC50', 0.564),
  ('Cc1cc(NC(=O)C(=O)O)cc(C)c1Oc1ccc(O)c2c1CCC2 [CP-634384, reference compound]', 'AC50', 44.3);

Let's switch to this molecule now.
Lab note: CSCC[C@H](NC(=O)[C@H](Cc1ccc(OS(=O)(=O)O)cc1)NC(=O)[C@@H](N)CC(=O)O)C(=O)NCC(=O)N[C@@H](Cc1c[nH]c2ccccc12)C(=O)N[C@@H](CCSC)C(=O)N[C@@H](CC(=O)O)C(=O)N[C@@H](Cc1ccccc1)C(N)=O [Sincalide, reference compound] gave AC50 of 10.5

====

measurement_protocol: in vitro
experimental_context: rat, gh3-tre-luc cells, AC50 (uM) modified / 1000, Tox21_110001=Tox21_201447; viability, 1 nM T3 present, 24 h
measure: CC50 at 24 h

The recorded CC50 at 24 h for `OC[C@@H](O)[C@H]1O[C@@H]2O[C@H](C(Cl)(Cl)Cl)O[C@@H]2[C@H]1O` is > 90 µM

====

Would you mind telling me the reported CC50 at 24 h of each entry?
measurement_protocol: in vitro
experimental_context: rat, gh3-tre-luc cells, AC50 (uM) modified / 1000
Where a name gives a salt, the structure may show the parent alone.

Some solved cases for reference:
INSERT INTO measurements (molecule, observed) VALUES
  ('COc1nc(N)nc2c1ncn2[C@@H]1O[C@H](CO)[C@@H](O)[C@@H]1O', '> 50 µM'),
  ('OCCOc1ccc(OCCO)cc1 [2,2''-[1,4-Phenylenebis(oxy)]diethanol]', '> 90 µM'),
  ('COc1cc(-c2nc(NC(=O)c3cc4cc(C)cc(C)c4n3CC(=O)O)sc2CCC2CCCCC2)c(OC)cc1Cl [SR146131 trifluoroacetate (1:1)]', '12.1 µM'),
  ('CN1CCOC(c2ccccc2)c2ccccc2C1 (centres unmarked) [Nefopam hydrochloride]', '> 20 µM'),
  ('CCCCOCCOCCOCCOCCO', '> 90 µM');

Answer for every listed entry: what is its CC50 at 24 h? The entries follow.
1. OC(CCN1CCCC1)(c1ccccc1)C1CCCCC1 (centres unmarked) [Procyclidine hydrochloride]
2. c1ccc(-c2nnn[nH]2)cc1
3. CC[C@H]1[C@@H]2C[C@H]3[C@@H]4N(C)c5ccccc5[C@]45C[C@@H]([C@H]2[C@H]5O)N3[C@@H]1O

OUTPUT:
1: 10.6 µM; 2: > 90 µM; 3: > 20 µM

====

I'd be grateful if you could share measured CC50 at 24 h for these entries.
measurement_protocol: in vitro
experimental_context: rat, gh3-tre-luc cells, AC50 (uM) modified / 1000
Where a name gives a salt, the structure may show the parent alone.

INSERT INTO assay_data (molecule, measure, observed) VALUES
  ('CCN(CC)CCN1C(=O)CN=C(c2ccccc2F)c2cc(Cl)ccc21', 'CC50 at 24 h', '23.1 µM'),
  ('O=C1c2ccccc2C(=O)c2cc(O)ccc21 [2-Hydroxyanthraquinone]', 'CC50 at 24 h', '> 90 µM'),
  ('Cc1cc(-c2ccccc2)nnc1NCCN1CCOCC1 [Minaprine dihydrochloride]', 'CC50 at 24 h', '> 50 µM'),
  ('CN1CCN(c2c(F)cc3c(=O)c(C(=O)O)cn4c3c2OCN4C)CC1', 'CC50 at 24 h', '> 50 µM'),
  ('CO[Si](CCCNc1ccccc1)(OC)OC [N-[3-(Trimethoxysilyl)propyl]aniline]', 'CC50 at 24 h', '> 90 µM'),
  ('Cc1cccc(N)c1N', 'CC50 at 24 h', '> 90 µM');

Respectfully, I request CC50 at 24 h for each entry included below.
1. C=CC(=O)OCC1CCCO1 (stereo not shown) [Tetrahydrofurfuryl acrylate]
2. O=C(O)CCC/C=C\C[C@@H]1[C@@H](/C=C/[C@@H](O)COc2cccc(C(F)(F)F)c2)[C@H](O)C[C@@H]1O (racemic)

OUTPUT:
1. > 90 µM
2. > 50 µM

Required: CC50 at 24 h, one value per molecule below.
1. O=C(O)c1ccc(NC(=O)[C@H](Cc2ccc(O)cc2)NC(=O)c2ccccc2)cc1 [Bentiromide sodium]
2. C=C(C)C(=O)OCC1CCCO1 (stereo not shown) [Tetrahydrofurfuryl methacrylate]
3. C=CC(=O)OCCOCCOCC [2-(2-Ethoxyethoxy)ethyl prop-2-enoate]
4. C[C@@H]1C[C@H]2[C@@H]3C[C@H](F)C4=CC(=O)C(Cl)=C[C@]4(C)[C@@]3(F)[C@@H](O)C[C@]2(C)[C@@]1(O)C(=O)CO [Halometasone hydrate]
5. C[C@@H](O)[C@@H](C)O

OUTPUT:
["> 50 µM", "> 90 µM", "> 90 µM", "> 50 µM", "> 100 µM"]

====

Test system: thyroid hormone receptor (TR)
measurement_protocol: Classification of TR actives across characterization assays (TR-Ag / RXR-Ag; TR model binary)
Set-up: key: FP, false positive
experimental_context: TR agonist characterization
measure: Categorization Code

For orientation, consider the following solved cases.
INSERT INTO measurements (compound, observed) VALUES
  ('Cc1occc(=O)c1O', 'FP'),
  ('C=C(c1ccc(C(=O)O)cc1)c1cc2c(cc1C)C(C)(C)CCC2(C)C [Bexarotene, reference compound]', 'RXR-Ag'),
  ('O=C(Cl)OCCOCCOC(=O)Cl [Diethlylene glycol bis chloroformate]', 'FP'),
  ('Cc1cc(NC(=O)C(=O)O)cc(C)c1Oc1ccc(O)c2c1CCC2 [CP-634384, reference compound]', 'TR-Ag'),
  ('Nc1ccc(S(=O)(=O)Nc2nccs2)cc1', 'FP'),
  ('CC1=C(/C=C/C(C)=C/C=C/C(C)=C\C(=O)O)C(C)(C)CCC1 [13-cis Retinoic acid, reference compound]', 'RXR-Ag');

Batch lookup, Categorization Code per entry.
1. Cc1ccc(O)cc1
2. Cl.NC(CO)(CO)CO [Tromethamine hydrochloride]

OUTPUT:
FP
FP

====

Test system: GH3-TRE-Luc cell line
experimental_context: read-out: AC50 (uM) modified / 1000; Tox21_110001=Tox21_303017; viability, 1 nM T3 present, 24 h
Where a name gives a salt, the structure may show the parent alone.
measure: CC50
# output: number + unit

Record Nc1ccc(O)c(N)c1 [2,4-Diaminophenol dihydrochloride] , field CC50: 45.5 µM

====

measurement_protocol: in vitro
experimental_context: rat, gh3-tre-luc cells, AC50 (uM) modified / 1000
Where a name gives a salt, the structure may show the parent alone.
Field: CC50 at 24 h. Provide a value for each of the compounds that follow.

INSERT INTO results (compound, observed) VALUES
  ('CCCCn1cc[n+](C)c1C [1-Butyl-2,3-dimethylimidazolium chloride]', '> 90 µM');

Working through the 8 compounds below one at a time, give CC50 at 24 h for each.
1. CN1CCN(C(c2ccccc2)c2ccccc2)CC1 [Cyclizine hydrochloride]
2. N#CCCl [Chloroacetonitrile]
3. CCCCc1oc2ccc(NS(C)(=O)=O)cc2c1C(=O)c1ccc(OCCCN(CCCC)CCCC)cc1 [Dronedarone]
4. CCCCCCCCCCCCCCCCC(C(=O)O)C(O)(CC(=O)O)C(=O)O (stereo not drawn) [Agaric acid]
5. Cc1onc(-c2c(F)cccc2Cl)c1C(=O)N[C@@H]1C(=O)N2[C@@H]1SC(C)(C)[C@@H]2C(=O)O [Floxacillin sodium salt]
6. CCCOc1ccccc1-c1nc2nn[nH]c2c(=O)[nH]1 [Zaprinast]
7. C[C@H](CN1CCCC1)C(=O)c1ccc(C(F)(F)F)cc1 [Lanperisone hydrochloride]
8. CCn1cc[n+](C)c1C [1-Ethyl-2,3-dimethylimidazolium bromide]

OUTPUT:
1. > 20 µM
2. > 100 µM
3. 9.94 µM
4. 29.5 µM
5. > 50 µM
6. > 50 µM
7. > 50 µM
8. > 90 µM

Hi, could you look up CC50 at 24 h for each item in my list?
1. CCCn1c(=O)[nH]c(=O)c2[nH]cnc21 [Enprofylline]
2. C1CN(CCOCCN2CCOCC2)CCO1 [4,4'-(Oxydiethylene)bis(morpholine)]
3. CCCCC(CC)COC(=O)c1ccc(N(C)C)cc1 (stereo not drawn) [2-Ethylhexyl 4-(dimethylamino)benzoate]
4. CCOCCOCCOCC [Diethylene glycol diethyl ether]

OUTPUT:
1. > 50 µM
2. > 90 µM
3. > 90 µM
4. > 90 µM

# return CC50 at 24 h for each item in the list
1. COc1cc(OC)nc(NC(=O)NS(=O)(=O)c2ncccc2C(=O)N(C)C)n1 [Nicosulfuron]
2. CCCCCCOc1ccc(O)cc1 [4-(Hexyloxy)phenol]
3. N#CC(Cl)(Cl)Cl [Trichloroacetonitrile]
4. CN(C)C(=O)Oc1cc(OC(=O)N(C)C)cc(C(O)CNC(C)(C)C)c1 (stereo not drawn) [Bambuterol hydrochloride]

OUTPUT:
["> 90 µM", "25.3 µM", "> 90 µM", "> 20 µM"]

Could I get CC50 at 24 h for every one of these entries?
1. C[Si](C)(CCCN)O[Si](C)(C)CCCN
2. CN(C)N=Nc1ccccc1 [1-Phenyl-3,3-dimethyltriazene]
3. COc1cc(N)c(Cl)cc1C(=O)NC1CCN(Cc2ccccc2)CC1 [Clebopride maleate]
4. CN(C)CC/C=C1/c2ccccc2Sc2ccc(Cl)cc21 [Chlorprothixene]
5. CCOC(=O)C1CC(=O)C(=C(O)C2CC2)C(=O)C1 (stereo not drawn) [Trinexapac-ethyl]
6. CC(=O)SCC(CC(=O)c1ccc(C)cc1)C(=O)O (stereo not drawn) [Esonarimod]
7. O=S(=O)(c1ccc(Cl)cc1)c1cc(Cl)c(Cl)cc1Cl [Tetradifon]
8. Cc1cccc(C(=O)O)c1O [2-Hydroxy-3-methylbenzoic acid]

OUTPUT:
> 90 µM
> 90 µM
> 20 µM
11 µM
> 90 µM
> 50 µM
60.5 µM
> 50 µM
